- Test: Quantitative High-Throughput drug screen in 47 multiple myeloma cell lines against the NCATS MIPE library collection: VP6_DJ cell viability assay (AID 1919867); note: nearly all actives have a fitted effect of over 40% in size
- Condition Details: ATP luminescence, 48 h; series mostly up to 45.8 µM
Inconclusive results are not listed. Calls of active or inactive are those of the source. Calls come from the whole dose curve; as a rule, active = well fitted cell-killing curve with a large enough effect; inconclusive = small, poorly fitted or top-dose-only effect, or effect the other way; inactive = no such curve, though single readings can be large or run the other way.
Would you mind answering with one of these outcomes? yes (1) (active), no (0) (inactive)

Consider the following illustrative entries.
O=C(Nc1ncc(-c2cc(C(F)F)nn2-c2c(Cl)cccc2Cl)s1)C1CC1    yes (1)
COc1cc2ncnc(Nc3ccc(F)c(Cl)c3)c2cc1NC(=O)C=CCN1CCCCC1    yes (1)
COc1cccc2c(NCc3ccccc3)nc(-n3c(N)nc4ccccc43)nc12    yes (1)
c1nc2nc(Nc3ccc(N4CCOCC4)cc3)nc(NC3CCCCC3)c2[nH]1    yes (1)

How was `O=C(O)CCCc1c[nH]c2ccccc12` classified in this test?
yes (1)

How was O=c1[nH]c(=O)n(C2CCCO2)cc1F (stereo not given) classified in this test?
no (0)

How was `CN1CCN(c2ccc3nc(-c4c(N)c5c(F)cccc5[nH]c4=O)[nH]c3c2)CC1` classified in this test?
yes (1)

How was `CC(C)[C@H](C(=O)Nc1ccc(C(=O)NO)cc1)c1ccccc1` classified in this test?
yes (1)

How was `Cc1ccc(-c2ncn(-c3ccc(Nc4nccc(-c5cccc(N6CCOCC6)c5)n4)cc3)n2)cn1` classified in this test?
yes (1)

How was `C[C@@H]1COC(Nc2ccc3ncnc(Nc4ccc(OCc5nccs5)c(Cl)c4)c3c2)=N1` classified in this test?
yes (1)
